System: L1210 leukemia ip in BDF1 mice, survival T/C
Assay: NCI In Vivo Anticancer Drug Screen. Data for tumor model L1210 Leukemia (intraperitoneal) in B6D2F1 (BDF1) mice
Details: endpoint: mean survival time; dose: 100.0 mg/kg/injection; schedule: Q04DX003 (ip); vehicle: other; higher = longer survival
Toxic doses and inconclusive results are not listed.
Recorded measurements of T/C, one per entry
QUANTITY KIND: T/C

{"MOLECULE": "Cc1ccc(CN(CC(=O)O)S(C)(=O)=O)cc1", "QUANTITY KIND": "T/C", "OBSERVED MEASUREMENT": "95 % of control"}
{"MOLECULE": "CCC(CO)NC(=O)/C=C/c1cccc(Br)c1 (centres undefined)", "QUANTITY KIND": "T/C", "OBSERVED MEASUREMENT": "102 % of control"}
{"MOLECULE": "ClC12C3CCCC1CCCC2CCC3 (centres undefined)", "QUANTITY KIND": "T/C", "OBSERVED MEASUREMENT": "117 % of control"}
{"MOLECULE": "C[C@@H]1C[C@@]2(C)[C@@H](CC[C@@H]3[C@@H]2CC[C@]2(C)OC(=O)CC[C@@H]32)CC1=O", "QUANTITY KIND": "T/C", "OBSERVED MEASUREMENT": "98 % of control"}

---

Recorded measurements of T/C, one per entry
Test system: L1210 leukemia ip in BDF1 mice, survival T/C
Assay: NCI In Vivo Anticancer Drug Screen. Data for tumor model L1210 Leukemia (intraperitoneal) in B6D2F1 (BDF1) mice
Conditions: endpoint: mean survival time; dose: 150.0 mg/kg/injection; schedule: Q01DX009 (ip); vehicle: Klucel (hydroxypropylcellulose) (HPC); higher = longer survival
Toxic doses and inconclusive results are not listed.
QUANTITY KIND: T/C

{"COMPOUND": "c1ccc2c(c1)Sc1ccccc1N2C[C@H]1CCCN2CCCC[C@H]12", "ASSAYED TARGET": "L1210 leukemia ip in BDF1 mice, survival T/C", "QUANTITY KIND": "T/C", "OBSERVED MEASUREMENT": "91 % of control"}
{"COMPOUND": "O=C(/C=C/c1ccccc1)NN1CCOCC1", "ASSAYED TARGET": "L1210 leukemia ip in BDF1 mice, survival T/C", "QUANTITY KIND": "T/C", "OBSERVED MEASUREMENT": "108 % of control"}
{"COMPOUND": "Cc1ccc(C(=O)C2C3C=CC(C3)C2C(=O)c2ccc(C)cc2)cc1 (centres undefined)", "ASSAYED TARGET": "L1210 leukemia ip in BDF1 mice, survival T/C", "QUANTITY KIND": "T/C", "OBSERVED MEASUREMENT": "90 % of control"}
{"COMPOUND": "Cc1cc(NC(=S)Nc2ccccc2)c(NC(=S)Nc2ccccc2)cc1C", "ASSAYED TARGET": "L1210 leukemia ip in BDF1 mice, survival T/C", "QUANTITY KIND": "T/C", "OBSERVED MEASUREMENT": "97 % of control"}

---

System: L1210 leukemia ip in BDF1 mice, survival T/C
Experiment: NCI In Vivo Anticancer Drug Screen. Data for tumor model L1210 Leukemia (intraperitoneal) in B6D2F1 (BDF1) mice
Settings: endpoint: mean survival time; dose: 50.0 mg/kg/injection; schedule: Q01DX001 (ip); vehicle: carboxymethylcellulose (CMC); higher = longer survival
Procedure: The antitumor activity of compounds was measured in mice bearing transplantable tumors. Survival or tumor size were measured and the results are expressed as the measurement made in the treated group (T) divided by the measurement made in the vehicle treated control group (C). The tumor model used in this assay is L1210 Leukemia (intraperitoneal) in B6D2F1 (BDF1) mice
Inconclusive results and toxic doses are left out.
Recorded measurements of T/C, one per entry
QUANTITY KIND: T/C

{"MOLECULE": "COc1cccc(/C=C2\\CCNC2=O)c1OC", "OBSERVED MEASUREMENT": "96 % of control"}
{"MOLECULE": "CCCCCCCCCC(=O)N1CCCCC1C (configuration not stated)", "OBSERVED MEASUREMENT": "93 % of control"}
{"MOLECULE": "O=[N+]([O-])c1ccc(CCBr)cc1", "OBSERVED MEASUREMENT": "96 % of control"}
{"MOLECULE": "CC(=O)[O][Ge]([CH2]CC(C)C)([CH2]CC(C)C)[CH2]CC(C)C", "OBSERVED MEASUREMENT": "100 % of control"}
{"MOLECULE": "ClC(c1ccccc1)C(Cl)c1ccccc1 (configuration not stated)", "OBSERVED MEASUREMENT": "101 % of control"}
{"MOLECULE": "Nc1nc(-c2ccccc2)c(CCCOc2ccc(NC(=O)CBr)cc2)c(=O)[nH]1", "OBSERVED MEASUREMENT": "91 % of control"}
{"MOLECULE": "Fc1cc(N(CCCl)CCCl)ccc1CNCCCNCc1ccc(N(CCCl)CCCl)cc1F", "OBSERVED MEASUREMENT": "93 % of control"}
{"MOLECULE": "CC1CN1S(=O)(=O)N1CC1C (configuration not stated)", "OBSERVED MEASUREMENT": "111 % of control"}
{"MOLECULE": "CCOc1ccccc1/C=N/Nc1nnc(N/N=C/c2ccccc2OCC)c2ccccc12", "OBSERVED MEASUREMENT": "91 % of control"}
{"MOLECULE": "CN1C(=O)NC(C)(CCOCc2ccccc2)C1=O (configuration not stated)", "OBSERVED MEASUREMENT": "96 % of control"}
{"MOLECULE": "CC1(OC(=O)c2ccc([N+](=O)[O-])cc2)CC2CC1c1ccccc12 (configuration not stated)", "OBSERVED MEASUREMENT": "90 % of control"}
{"MOLECULE": "NS(N)(=O)=O", "OBSERVED MEASUREMENT": "88 % of control"}
